# MEASUREMENT_PROTOCOL: Toxicity liver stage against HepG2, at 10uM
# Assay type: cell-based
# Parameters: test concentration 10 uM, cell line HepG2-A16-CD81EGFP
# TEST_CONTEXT: human, HepG2-A16-CD81EGFP cells; read-out: INHIBITION
MEASURED_QUANTITY: cytotoxicity at 10 µM (%)
One number for each entry, in %.

Cn1ncc2ccc(C3CCCN(Cc4ccsc4)C3)nc21 (stereo not given)
8.61

Go through the items and report each one's cytotoxicity at 10 µM.
1. COc1cc2nc3n(c(=O)c2cc1OC)CCN(C(=O)C(C)(C)C)CC3
2. COc1cccc(-c2cc(NCc3cscn3)n(C)n2)c1
3. CCN(Cc1ccc(N(C)C)cc1)S(=O)(=O)c1cc(Br)ccc1OC

Ans.
1: -13.5; 2: 3.69; 3: 5.12

Go through the items and report each one's cytotoxicity at 10 µM.
1. CN(CCNC(=O)c1cccnc1)S(C)(=O)=O
2. Cc1cc(C(=O)CN2CCN(c3ncccn3)CC2)c(C)n1C(C)C
3. CN(C)CCNC(=O)CC1CCN(c2cccnn2)CC1
4. CC1CN(c2ncnc3cccc(F)c23)CCO1 (stereo not given)
5. Cc1nc(CN2CCN(S(=O)(=O)N3CCOCC3)CC2)oc1C
6. COc1ccc(S(=O)(=O)N2CCc3ccc(F)cc32)cc1C(=O)O
7. COCc1ccccc1NC(=O)NCc1ccc(OCC2CC2)nc1

Ans.
[-0.102, 9.71, 6.04, 16.1, 0.373, -11.4, 3.88]

Go through the items and report each one's cytotoxicity at 10 µM.
1. CC(C(=O)N1CCCN(c2ccc(C#N)cc2)CC1)n1ccnc1 (stereo not given)
2. Cn1cnc2c1CCN(CCOc1ccc(C#N)cc1)C2

Ans.
-9.75
-9.47

Go through the items and report each one's cytotoxicity at 10 µM.
1. CCc1ccc(CN2CCC3(CCCN(C(=O)N(C)C)C3)C2)o1 (stereo not given)
2. COc1cccc(-c2n[nH]cc2C(=O)NC(C)c2nc(C(C)C)no2)c1 (stereo not given)

Ans.
1: 7.07; 2: -2.75

Go through the items and report each one's cytotoxicity at 10 µM.
1. Cc1ccc(N2CCCc3sc(C(=O)NCCO)nc32)nn1
2. O=C(NCc1ccccc1F)N1CCCCC1C1OCCO1 (stereo not given)
3. Cc1ccc2c(c1)C1(CCNCC1)CC2NCCO (stereo not given)
4. CCOC(=O)c1n[nH]cc1CN1CCOC(Cc2ccccc2)C1 (stereo not given)
5. Cc1cc(OC(F)F)c(C(=O)N2CCC(N(C)C)CC2)s1
6. CCN(Cc1cc(Cl)ccc1OC)Cc1cc(C)nn1C
7. CCS(=O)(=O)CCN1CCCC1c1noc(C)n1 (stereo not given)

Ans.
1: 13.3; 2: 2.01; 3: -105; 4: -5.35; 5: 6.9; 6: 6.62; 7: -10.4

Go through the items and report each one's cytotoxicity at 10 µM.
1. CS(=O)(=O)N1CCCC12CCCN(S(=O)(=O)c1cc(F)cc(F)c1)C2 (stereo not given)
2. O=C(c1cccnc1)N1CCO[C@@H]2CNC[C@@H]21
3. Cc1nc(CNC(C(=O)N2CCOCC2)c2ccccc2)cs1 (stereo not given)

Ans.
1: 10.9; 2: -103; 3: 7.33

====

# MEASUREMENT_PROTOCOL: Toxicity liver stage against HepG2, at 10uM
# Format: cell-based
# Set-up: test concentration 10 uM, cell line HepG2-A16-CD81EGFP
# TEST_CONTEXT: human, HepG2-A16-CD81EGFP cells; read-out: INHIBITION
Give measured cytotoxicity at 10 µM for each item. Keep answers brief.
One number for each entry, in %.

Worked cases, cytotoxicity at 10 µM given:
O=C(CS(=O)(=O)Cc1ccc(F)cc1)NC1CCCCNC1=O (configuration not stated)
-0.252
CCCNC(c1cccnc1)c1ccc(F)c(C)c1 (configuration not stated)
0.821
COCc1cc(N2CCOCC2)n2nccc2n1
-1.98
CC(C)N(C)Cc1cncc2c1CCN(CC(=O)N(C)C)C2
-100
Cc1nc(CN2CCC(N(C)Cc3nnc(C4CC4)n3C)C2)cs1 (configuration not stated)
-10.7
Cc1cccnc1C(=O)N1C[C@@H]2CC[C@H](Oc3cccc(F)c3)[C@@H]2C1
0.297
COc1ccc(Oc2cccc(C#N)n2)cc1CN1CCCC1
-1.86
Cc1cnn(CC2CCCN2C(=O)c2cnc3n[nH]c(C)c3c2)c1 (configuration not stated)
8.73

Go through the items and report each one's cytotoxicity at 10 µM.
1. CN(C)C(=O)C1CSCN1C(=O)CCc1ccco1 (configuration not stated)
2. Cc1ccc(-c2cc(N)c(=O)n(CC(=O)NC3CCCCC3)n2)s1

Ans.
-6.53
2.98

====

# MEASUREMENT_PROTOCOL: Toxicity liver stage against HepG2, at 10uM
# Assay type: cell-based
# Design: test concentration 10 uM, cell line HepG2-A16-CD81EGFP
# TEST_CONTEXT: human, HepG2-A16-CD81EGFP cells; read-out: INHIBITION
MEASURED_QUANTITY: cytotoxicity at 10 µM (%)
One number for each entry, in %.

Go through the items and report each one's cytotoxicity at 10 µM.
1. Cc1cc(CN2CC[C@H]3C[C@H](C(=O)N4CCC(C)CC4)O[C@H]3C2)no1
2. Cc1nc(=O)c(CC(=O)N2C[C@@H]3CC[C@H]2CN(C(=O)N(C)C)C3)c(C)[nH]1
3. CC(C)(C)c1nc(CNc2ccccc2SCCC(N)=O)cs1
4. CC(C)(C)OC(=O)NC1(c2noc(-c3ccco3)n2)CCC1
5. Cc1c(Cc2ccccc2)c(O)nc2nc(N3CCOCC3)nn12

Ans.
1.34
7.6
23.5
-0.657
9.76

====

# MEASUREMENT_PROTOCOL: Toxicity liver stage against HepG2, at 10uM
# Assay type: cell-based
# Set-up: test concentration 10 uM, cell line HepG2-A16-CD81EGFP
# TEST_CONTEXT: human, HepG2-A16-CD81EGFP cells; read-out: INHIBITION
MEASURED_QUANTITY: cytotoxicity at 10 µM (%)
One number for each entry, in %.

Worked cases, cytotoxicity at 10 µM given:
COCC(c1ccccn1)N(C)C(=O)c1cc(-c2ccc(O)cc2)n[nH]1 (stereo not drawn)
-4.07
CC(C)c1nn(C)c(N(C)C)c1CNCCC(=O)NC1CCCC1
-6.63
CS(=O)(=O)NC1CCN(C(=O)NCC2CCCO2)CC1 (stereo not drawn)
-1.9

Go through the items and report each one's cytotoxicity at 10 µM.
1. COC(=O)c1cccc2nc([C@H]3CCN(CC(C)C)C3)oc12
2. O=C(Cc1ccccn1)N1CCC2(CC1)[C@H](O)C[C@@H]2O
3. Cc1ccc(C(C(=O)NC(C)(C)CN2CCCC2)N(C)C)cc1 (stereo not drawn)
4. O=S(=O)(c1cc(F)ccc1F)n1cc(Cl)cn1
5. CCc1cnc(CN(C)C(=O)NC2CCN(c3ccccc3)C2)s1 (stereo not drawn)
6. O=C1CN(S(=O)(=O)CC(F)(F)F)CC(O)CN1CCCc1ccccc1 (stereo not drawn)
7. O=S(=O)(N1CCCCC1)N1CCC(Oc2cnccn2)CC1

Ans.
1. -2.13
2. -2.34
3. -6.93
4. 4.52
5. -2.12
6. -7.99
7. -14.1

Go through the items and report each one's cytotoxicity at 10 µM.
1. CCn1ccnc1CN1CCN(Cc2cc(C#N)ccc2F)CC1
2. Cc1c(C(C)N)cnn1-c1ccccn1 (stereo not drawn)
3. COc1ccc(N(C)C(=O)c2cccc(S(C)(=O)=O)c2)cn1
4. C=C(C)COc1cccc(CN(CC)Cc2noc(C)n2)c1
5. COCC(C)NC(=O)CCCn1cnc2ccccc2c1=O (stereo not drawn)

Ans.
1. -7.19
2. -3.86
3. 7.36
4. -12
5. 8.43

Go through the items and report each one's cytotoxicity at 10 µM.
1. c1cn(-c2cnc(C3CCNCC3)cn2)cn1
2. Cn1cc(C(=O)CC2CCCN2C(=O)c2ccncc2F)cn1 (stereo not drawn)
3. CCc1nc(C)c(C(=O)NCCn2nc3ccccn3c2=O)s1
4. CNC(=O)c1cc2c(nc1N(C)C)CCN(c1ncccn1)CC2
5. Cc1noc(CNC(=O)C2CSCCC(=O)N2)n1 (stereo not drawn)

Ans.
1. -5.72
2. 0.555
3. -9.42
4. -119
5. 2.42

Go through the items and report each one's cytotoxicity at 10 µM.
1. Cc1cc(C)cc(CN2CCN(Cc3ccc4nonc4c3)CC2=O)c1
2. CC(C)c1ocnc1C(=O)N1CCC2(CC1)OCCO2

Ans.
1. 0.403
2. 0.0416

====

Give measured cytotoxicity at 10 µM for each item. Keep answers brief.
# MEASUREMENT_PROTOCOL: Toxicity liver stage against HepG2, at 10uM
# Type: cell-based
# Design: test concentration 10 uM, cell line HepG2-A16-CD81EGFP
# TEST_CONTEXT: human, HepG2-A16-CD81EGFP cells; read-out: INHIBITION
Numbers only, in %.

Cc1nc(C(=O)N2CCOC(Cc3ccccc3)C2)co1 (stereo unspecified)
-3.24
Cc1cccc(CN2CC3C[C@]3(NC(=O)c3ccoc3)C2)n1 (stereo partly specified)
-147
COc1c(C2CCCN2CC(=O)N(C)c2nccs2)c(C)nn1C (stereo unspecified)
3.37
Cc1nocc1C(=O)N1CCOC2(COCCN(C(C)C)C2)C1 (stereo unspecified)
10
O=C(CSC1CCc2ccccc2NC1=O)NCCc1ccco1 (stereo unspecified)
-13

Go through the items and report each one's cytotoxicity at 10 µM.
1. CCCN1C(=O)CC2(CCCNC2)C1=O (stereo unspecified)
2. Cn1nccc1C(=O)N1CCC(c2ncc(Cl)cc2S(C)(=O)=O)CC1
3. CCn1c(CC2CCN(C(=O)c3cc(C(C)C)nn3C)CC2)n[nH]c1=O
4. c1ccc(CO[C@H]2CN(c3ncccn3)C[C@@]23CCCO3)cc1
5. COc1cc(OC)c(CNC(=O)NCC(=O)N2CCCC2)c(OC)c1
6. Cc1c[nH]c(CN2CCOC(c3ccc(F)cc3)C2)c(C)c1=O (stereo unspecified)

Ans.
4.1
7.91
-58.5
-6.11
10.4
-1.82

These data points were gathered from ChEMBL document CHEMBL4513216.
